Target: ERα (Homo sapiens, UniProt P03372)
Construct: host or cells: MCF7
Assay: Estrogen receptor degradation activity: breast cancer cell ERα in cell western assay (MCF7 cells)
Type: cell-based
Settings: 4 hours post compound addition, concentration which degrades 50% of the estrogen receptor, read-out: Degradation IC50
measureName: DC50 (nM)
A number alone suffices; assume nM.

compound="Cc1cccc(C2=C(c3ccc(C=C4CN(CCC(F)(F)F)C4)cc3)c3ccc(C(=O)O)cc3CCC2)c1C(F)(F)F [Example 110]" measuredon="ERα (Homo sapiens, UniProt P03372)" measuredresult=2.9
compound="COc1cc(C2=C(c3ccc(C=C4CN(CCCF)C4)cc3)c3ccc(C(=O)O)cc3CCC2)c(F)cn1 [Example 156]" measuredon="ERα (Homo sapiens, UniProt P03372)" measuredresult=0.6
compound="Cc1cccc(C2=C(c3ccc(C=C4CN(CCCF)C4)cc3)c3ccc(C(=O)O)cc3CCC2)c1C(F)(F)F [Example 118]" measuredon="ERα (Homo sapiens, UniProt P03372)" measuredresult=0.4
compound="O=C(O)c1ccc2c(c1)CCCC(c1ccc(F)cc1F)=C2c1ccc(C=C2CN(CCCF)C2)c(F)c1F [Example 43]" measuredon="ERα (Homo sapiens, UniProt P03372)" measuredresult=0.4
compound="CC1CCC(C2=C(c3ncc(C=C4CN(CCCF)C4)cc3F)c3ccc(C(=O)O)cc3CCC2)CC1 (mixture of isomers) [Example 188]" measuredon="ERα (Homo sapiens, UniProt P03372)" measuredresult=1.8

input: Recorded DC50 of Cc1cccc(C2=C(c3ccc(C=C4CN(CCC(F)F)C4)cc3)c3ccc(C(=O)O)cc3CCC2)c1Cl [Example 131] , please.
output: 1.1

input: Recorded DC50 of O=C(O)c1ccc2c(c1)CCCC(c1ccc(Cl)cc1Cl)=C2c1ncc(C=C2CN(CCCF)C2)cc1F [Example 158] , please.
output: 0.4

###

Target: ERα (Homo sapiens, UniProt P03372)
Construct: host or cells: MCF7
Sequence (P03372 1-595): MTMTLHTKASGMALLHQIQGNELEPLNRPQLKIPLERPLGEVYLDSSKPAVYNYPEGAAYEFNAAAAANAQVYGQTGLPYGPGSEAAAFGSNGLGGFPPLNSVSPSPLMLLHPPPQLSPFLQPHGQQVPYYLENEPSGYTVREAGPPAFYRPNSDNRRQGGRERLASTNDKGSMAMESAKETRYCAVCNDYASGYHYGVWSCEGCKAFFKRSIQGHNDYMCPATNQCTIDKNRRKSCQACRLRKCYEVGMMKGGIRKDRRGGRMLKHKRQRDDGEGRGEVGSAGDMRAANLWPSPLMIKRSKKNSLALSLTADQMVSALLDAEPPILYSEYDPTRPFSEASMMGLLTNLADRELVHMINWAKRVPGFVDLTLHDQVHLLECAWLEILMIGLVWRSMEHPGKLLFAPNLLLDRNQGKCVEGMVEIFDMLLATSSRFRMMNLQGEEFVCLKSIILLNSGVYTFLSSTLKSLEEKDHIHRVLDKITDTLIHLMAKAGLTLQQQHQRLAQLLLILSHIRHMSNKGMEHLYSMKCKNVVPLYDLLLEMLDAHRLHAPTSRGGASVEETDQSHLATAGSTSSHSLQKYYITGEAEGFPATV
Experiment: Estrogen receptor degradation activity: breast cancer cell ERα in cell western assay (MCF7 cells)
Format: cell-based
Details: 0.3 μM, 4 hours, relative to fulvestrant 0.1 μM positive control
The compounds listed here are annotated with their % Degradation At 0.3 μM.
A number alone suffices; assume %.

compound=O=C(O)c1ccc2c(c1)CCCC(c1c(F)cc(F)cc1F)=C2c1ccc(C=C2CN(CCCF)C2)cc1 measurename="% Degradation At 0.3 μM" measuredresult=92
compound=Cc1cccc(C2=C(c3ccc(C=C4CN(CCCF)C4)cc3)c3ccc(C(=O)O)cc3CCC2)c1C measurename="% Degradation At 0.3 μM" measuredresult=96
compound="O=C(O)c1ccc2c(c1)CCCC([C@@H]1C[C@H]1C1CCC(F)(F)CC1)=C2c1ccc(C=C2CN(CCCF)C2)cc1 (racemic)" measurename="% Degradation At 0.3 μM" measuredresult=86
compound=O=C([O-])c1ccc2c(c1)CCCC(c1ccc(F)cc1F)=C2c1ccc(C=C2CN(CCCF)C2)cc1F.[Na+] measurename="% Degradation At 0.3 μM" measuredresult=96
compound=O=C(O)c1ccc2c(c1)CCCC(c1ccc(C(F)(F)F)cc1Cl)=C2c1ccc(C=C2CN(CCCF)C2)cc1 measurename="% Degradation At 0.3 μM" measuredresult=93
compound=Cc1ccc(F)cc1C1=C(c2ccc(C=C3CN(CCCF)C3)cc2)c2ccc(C(=O)O)cc2CCC1 measurename="% Degradation At 0.3 μM" measuredresult=91
compound=O=C(O)c1ccc2c(c1)CCCC(c1cccc3c1CCC3)=C2c1ccc(C=C2CN(CCCF)C2)cc1 measurename="% Degradation At 0.3 μM" measuredresult=90
compound=O=C(O)c1ccc2c(c1)CCCC(c1cccc(Cl)c1F)=C2c1ccc(C=C2CN(CCCF)C2)cc1 measurename="% Degradation At 0.3 μM" measuredresult=91

input: Recorded % Degradation At 0.3 μM of O=C(O)c1ccc2c(c1)CCCC(c1cccc(F)c1Cl)=C2c1ccc(C=C2CN(CCCF)C2)cc1 , please.
output: 93

input: Recorded % Degradation At 0.3 μM of Cc1cc(F)c(C2=C(c3ccc(C=C4CN(CCCF)C4)cc3)c3ccc(C(=O)O)cc3CCC2)c(F)c1 , please.
output: 95

###

Molecular target: ERα (Homo sapiens, UniProt P03372)
Construct: host or cells: MCF7
Experiment: Estrogen receptor degradation activity: breast cancer cell ERα in cell western assay (MCF7 cells)
Assay type: cell-based
Conditions: 0.3 μM, 4 hours, relative to fulvestrant 0.1 μM positive control
measureName: % Degradation At 0.3 μM (%)
A number alone suffices; assume %.

Check out these entries, answers already filled in.
molecule=O=C(O)c1ccc2c(c1)CCCC(c1cccc3c1CCCC3)=C2c1ccc(C=C2CN(CCCF)C2)cc1 measurename="% Degradation At 0.3 μM" measuredresult=92
molecule=Cc1cc(C(F)(F)F)ccc1C1=C(c2ccc(C=C3CN(CCCF)C3)cc2)c2ccc(C(=O)O)cc2CCC1 measurename="% Degradation At 0.3 μM" measuredresult=90
molecule=Cc1c(C2=C(c3ccc(Cl)cc3Cl)CCCc3cc(C(=O)O)ccc32)ccc(C=C2CN(CCCF)C2)c1F measurename="% Degradation At 0.3 μM" measuredresult=90

input: Recorded % Degradation At 0.3 μM of O=C(O)c1ccc2c(c1)CCCC(c1ccc(C3CC3)cc1F)=C2c1ccc(C=C2CN(CCCF)C2)cc1 , please.
output: 90

###

Target: ERα (Homo sapiens)
Construct: host or cells: MCF7
Test: Estrogen receptor degradation activity: breast cancer cell ERα in cell western assay (MCF7 cells)
Type: cell-based
Conditions: 0.3 μM, 4 hours, relative to fulvestrant 0.1 μM positive control
Procedure: Test: Estrogen Receptor Degradation Activity Said test involves measuring the in vitro degradation activity of the compounds of the Table 1a. The measurements of the degradation activities were made using a breast cancer cell ERα in cell western assay as described hereunder. […] Integrated intensities in the green fluorescence and red fluorescence were measured to determine the levels of ERα and DNA respectively. […]
The compounds listed here are annotated with their % Degradation At 0.3 μM.
Numeric answer plus unit only.

Check out these entries, answers already filled in.
compound="O=C(O)c1ccc2c(c1)CCCC(c1cc(C(F)(F)F)ccc1F)=C2c1ccc(C=C2CN(CCCF)C2)cc1 [Example 121]" measurename="% Degradation At 0.3 μM" measuredresult=94%
compound="O=C(O)c1ccc2c(c1)CCCC(c1cccc(F)c1C(F)(F)F)=C2c1ccc(C=C2CN(CCC(F)F)C2)cc1 [Example 26]" measurename="% Degradation At 0.3 μM" measuredresult=91%
compound="Cc1ccc(C2=C(c3ccc(C=C4CN(CCCF)C4)c(F)c3)c3ccc(C(=O)O)cc3CCC2)c(F)c1 [Example 69]" measurename="% Degradation At 0.3 μM" measuredresult=94%
compound="Cc1cc(C2=C(c3ccc(Cl)cc3Cl)CCCc3cc(C(=O)O)ccc32)ccc1C=C1CN(CCCF)C1 [Example 64]" measurename="% Degradation At 0.3 μM" measuredresult=93%
compound="Cc1cccc(C2=C(c3ccc(C=C4CN(CCCF)C4)cc3)c3ccc(C(=O)O)cc3CCC2)c1C(F)(F)F [Example 118]" measurename="% Degradation At 0.3 μM" measuredresult=93%
compound="Cc1ccc(C2=C(c3ccc(C=C4CN(CCCF)C4)cc3)c3ccc(C(=O)O)cc3CCC2)c(C)c1 [Example 77]" measurename="% Degradation At 0.3 μM" measuredresult=92%

input: Recorded % Degradation At 0.3 μM of O=C(O)c1ccc2c(c1)CCCC(c1cccc(C(F)(F)F)c1Cl)=C2c1ccc(C=C2CN(CCCF)C2)cc1 [Example 147] , please.
output: 90%

input: Recorded % Degradation At 0.3 μM of O=C(O)c1ccc2c(c1)CCCC(c1ccc(F)cc1F)=C2c1ccc(C=C2CN(CCC(F)F)C2)cc1 [Example 20] , please.
output: 92%
